settings: Caco-2, Papp (BA), Mean
Numbered stars: 1 amine (or outer) side, 2 acyl side, 3 side chain; on linkers, the order of the positions; unused ones are H or OH. Square brackets hold non-standard residues; d marks the D form. Peptide text beside a SMILES is read from it. X2 = CCCCCCOC(=O)N=C(N)NCCC[C@H](N[*:1])C(=O)[*:2]; dNMeV = CN[C@@H](C(=O)O)C(C)C; NMeA = CN[C@@H](C)C(=O)O
Below: a set of entries, each annotated with reported Papp B→A.
Give just the number in ×10⁻⁶ cm/s; leave the unit off.

{"molecule": "CCCCCCOC(=O)N=C(N)NCCC[C@@H]1NC(=O)[C@@H](C(C)C)N(C)C(=O)[C@H](C)N(C)C(=O)[C@H](C)NC(=O)[C@H](CC(=O)OC)NC(=O)CNC1=O [#29P-Hoc] (cyclo(A[NMeA][dNMeV][X2]GD(OMe)))", "value-type": "Papp B→A", "value-observed": 0.3}

Which Papp B→A value belongs to CCCCCCOC(=O)N=C(NCCC[C@@H]1NC(=O)[C@H](C(C)C)N(C)C(=O)[C@@H](Cc2ccccc2)NC(=O)[C@H](CC(=O)OC)NC(=O)CNC1=O)NC(=O)OCCCCCC ?
0.3

###

test: Caco-2 bidirectional permeability with or without verapamil (Example 6); conditions: human, Caco-2, pH 7.4, Papp (BA), replicate 1, 10 μM, 90 min, without verapamil
value-type: Papp B→A at 90 min, 10 μM (×10⁻⁶ cm/s)
# value in ×10⁻⁶ cm/s; strip the unit string

Consider the compound CC(C)[C@@H]1C(=O)N[C@@H](CCCNC(=N)N)C(=O)NCC(=O)N[C@@H](CC(=O)O)C(=O)N[C@@H](C)C(=O)N(C)[C@@H](C)C(=O)N1C [Peptide 29, c(*vRGDA*A)] and give its measured Papp B→A at 90 min, 10 μM.
0.3

###

assay: Caco-2 bidirectional permeability with or without verapamil (Example 6); conditions: human, Caco-2, pH 7.4, Papp (BA), Mean, 10 μM, 90 min, without verapamil
value-type: Papp B→A at 90 min, 10 μM

Which measured Papp B→A at 90 min, 10 μM value corresponds to CC(C)[C@@H]1C(=O)N[C@@H](CCCNC(=N)N)C(=O)NCC(=O)N[C@@H](CC(=O)O)C(=O)N[C@@H](C)C(=O)N(C)[C@@H](C)C(=O)N1C [Peptide 29, c(*vRGDA*A)] ?
0.3 ×10⁻⁶ cm/s

###

conditions: Caco-2, Papp (BA), replicate 1
Numbered stars: 1 amine (or outer) side, 2 acyl side, 3 side chain; on linkers, the order of the positions; unused ones are H or OH. Square brackets hold non-standard residues; d marks the D form. Peptide text beside a SMILES is read from it. X2 = CCCCCCOC(=O)N=C(N)NCCC[C@H](N[*:1])C(=O)[*:2]; dNMeV = CN[C@@H](C(=O)O)C(C)C; NMeA = CN[C@@H](C)C(=O)O
value-type: Papp B→A (×10⁻⁶ cm/s)
Give the number; ×10⁻⁶ cm/s is assumed, so skip it.

{"molecule": "CCCCCCOC(=O)N=C(NCCC[C@@H]1NC(=O)[C@H](C(C)C)N(C)C(=O)[C@@H](Cc2ccccc2)NC(=O)[C@H](CC(=O)OC)NC(=O)CNC1=O)NC(=O)OCCCCCC", "value-observed": 0.4}

Shift focus to the following entry.
Look up Papp B→A: CCCCCCOC(=O)N=C(N)NCCC[C@@H]1NC(=O)[C@@H](C(C)C)N(C)C(=O)[C@H](C)N(C)C(=O)[C@H](C)NC(=O)[C@H](CC(=O)OC)NC(=O)CNC1=O [#29P-Hoc] (cyclo(A[NMeA][dNMeV][X2]GD(OMe)))
0.2

From: patent US11965041B2
